- ASSAY SUMMARY: EMT-state selective cytotoxicity in co-culture – imaging, PC-3E GFP, TEM4-18 mCherry, primary screen (AID 1345086);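 also: cells exposed to compound for 72 h before imaging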
- RECORDED CONDITIONS: PC-3E GFP / TEM4-18 mCherry co-culture, imaging cell counts; measured here: mesenchymal TEM4-18 mCherry cell survival; at 1 µM
VALUE TYPE: normalised cell number
Please state the value as a number alone, without comment.

-- ask Look up normalised cell number for this compound: OC(CCN1CCCCC1)(c1ccccc1)c1ccccc1
-- reply 0.92

-- ask Similarly, Oc1cc(O)c2c(c1)O[C@H](c1ccc(O)c(O)c1)[C@H](O)C2 ?
-- reply 0.89

-- ask Can you handle Cc1c(C(N)=O)cc([N+](=O)[O-])cc1[N+](=O)[O-] next?
-- reply 0.9

-- ask How about Cn1cnc2c1c(=O)[nH]c(=O)n2C ?
-- reply 0.9

###

- ASSAY SUMMARY: Wnt pathway potentiators raising nuclear beta-catenin – imaging, WNT3A-conditioned medium, mouse C2C12, NPC library, primary screen (AID 1117326)
- RECORDED CONDITIONS: at 10 µM, stronger effect = higher value
Assignment: determine reported nuclear beta-catenin stimulation for the given molecules.
Give the value in % but do not write % after it.

-- ask So what's the measured nuclear beta-catenin stimulation for this one? CC(=O)Oc1cccc(O)c1
-- reply 0.7

-- ask Another molecule: C[C@]12CCC(=O)C=C1CC[C@@H]1[C@@H]2[C@@H](O)C[C@@]2(C)[C@H]1CC[C@]2(O)C(=O)COP(=O)(O)O
-- reply -0.6

-- ask Another molecule to check: O=C(O)P(=O)(O)O
-- reply 0.2

-- ask Lookup CCN1CCC[C@H]1CNC(=O)c1c(O)c(Cl)cc(Cl)c1OC
-- reply 0.6

-- ask Subsequent entry: Cc1[nH]c(=O)c(C#N)cc1-c1ccncc1
-- reply 0.1

-- ask # iterate: CC1=C(C(=O)O)N2C(=O)[C@@H](NC(=O)[C@H](N)C3=CCC=CC3)[C@H]2SC1
-- reply -1.1

-- ask Another: CC(c1cc2ccccc2s1)N(O)C(N)=O (centres undefined)
-- reply 0.1

-- ask Now consider COC(=O)[C@@H](N)CS .
-- reply -1.4

-- ask Okay, and CCCC(C(=O)OCCN(CC)CC)(c1ccccc1)c1ccccc1 ?
-- reply 0

-- ask Follow-up entry: CNCCCCOc1ccccc1Cc1ccccc1
-- reply 1.7

-- ask Also C[N+]1(CCCCC[N+]2(C)CCCC2)CCCC1 ?
-- reply -1.8

-- ask One more molecule: CC(=O)OCC1=C(C(=O)O)N2C(=O)[C@@H](NC(=O)CSc3ccncc3)[C@H]2SC1
-- reply -0.8

-- ask Can you handle CCCCCCCCCCCCCCCCCCOCC(O)CO (centres undefined) next?
-- reply 3.8

-- ask And what about the molecule CC1=NN(c2ccccc2)C(=O)C1 ?
-- reply 0.5

###

- ASSAY SUMMARY: compounds distorting NS3 helicase fluorescence signal – biochemical, NIH Clinical Collection, artefact control for HCV NS3 helicase inhibitor project (AID 743272);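 also: HCV NS3 helicase with a Cy5 labelled single stranded DNA probe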
- RECORDED CONDITIONS: fluorescence interference counterscreen, HCV NS3 helicase assay
Calls of active or inactive are those of the source. No rule for the calls is given here.
Form entry, call: pick from y = active, n = inactive

-- ask Test call, this molecule: CN1CCN(CCCN2c3ccccc3Sc3ccc(Cl)cc32)CC1
-- reply y

-- ask What do you get for c1cnc(N2CCN(Cc3ccc4c(c3)OCO4)CC2)nc1 ?
-- reply n

-- ask Also, CCC1=C(C)CN(C(=O)NCCc2ccc(S(=O)(=O)NC(=O)NC3CCC(C)CC3)cc2)C1=O (stereo not given) please.
-- reply n

-- ask Then this molecule: CC(N)C12CC3CC(CC(C3)C1)C2 (stereo not given)
-- reply n

-- ask Entry to check: CC[N+](C)(CC)CCOC(=O)C(O)(c1ccccc1)C1CCCCC1 (stereo not given)
-- reply n

###

- ASSAY SUMMARY: EMT-state selective cytotoxicity in co-culture – imaging, PC-3E GFP, TEM4-18 mCherry, primary screen (AID 1345086);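 also: cells exposed to compound for 72 h before imaging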;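 as to red/green cell ratio (normalised): normalised mesenchymal count divided by normalised epithelial count so high means epithelial killing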
- RECORDED CONDITIONS: PC-3E GFP / TEM4-18 mCherry co-culture, imaging cell counts; at 1 µM; actives lie on both sides; counts scaled to control wells, 1 = unselective
VALUE TYPE: red/green cell ratio (normalised)
Answer with a number only.

-- ask For the compound NCCCC(=O)O , what red/green cell ratio (normalised) is on record?
-- reply 0.83

-- ask Let us now turn to Cc1ncc([N+](=O)[O-])n1CCO
-- reply 1.23

-- ask Next compound up: CC(=O)OCC(COC(C)=O)OC(C)=O
-- reply 1.26

-- ask Now give it for COCCCOc1cc(C[C@@H](C[C@H](N)[C@@H](O)C[C@H](C(=O)NCC(C)(C)C(N)=O)C(C)C)C(C)C)ccc1OC too.
-- reply 0.98

-- ask // repeat for CC(=O)NS(=O)(=O)c1ccc(N)cc1 and report
-- reply 1.56

-- ask Next compound up: NC(CO)C(=O)NNCc1ccc(O)c(O)c1O (centres undefined)
-- reply 1.1

-- ask Now the compound O=C1OC(c2ccc(O)cc2)(c2ccc(O)cc2)c2ccccc21
-- reply 1.12

-- ask Same for COc1ccccc1OCC(O)CN1CCN(CC(=O)Nc2c(C)cccc2C)CC1 (centres undefined)
-- reply 0.78

-- ask Field entry: CN(C)c1ccc(C(=C2C=CC(=[N+](C)C)C=C2)c2ccc(N(C)C)cc2)cc1
-- reply 3.62

-- ask Likewise for CCOc1ccc2nc3cc(N)ccc3c(N)c2c1 ?
-- reply 1.04

-- ask Query CCCc1nc(C)c2c(=O)[nH]c(-c3cc(S(=O)(=O)N4CCN(CC)CC4)ccc3OCC)nn12 next
-- reply 0.94

-- ask Try this compound too: CCc1c2c(nc3ccc(OC(=O)N4CCC(N5CCCCC5)CC4)cc13)-c1cc3c(c(=O)n1C2)COC(=O)[C@]3(O)CC
-- reply 1.07

-- ask Likewise for O=C(NCCN1CCOCC1)c1ccc(Cl)cc1 ?
-- reply 0.88

-- ask Okay, and CCN(CC)CCNc1ccc(CO)c2sc3ccccc3c(=O)c12 ?
-- reply 1.17

-- ask Would you kindly repeat that for CN(C)CCCN1c2ccccc2Sc2ccc(C(F)(F)F)cc21 ?
-- reply 1.26

-- ask Now the same for Cc1[nH]c(=O)c(C#N)cc1-c1ccncc1
-- reply 1.2

-- ask Moving on to the next compound: CCn1cc(C(=O)O)c(=O)c2cc(F)c(N3CCNCC3)nc21
-- reply 1.34

-- ask Input O=C(O)c1ccccc1Nc1cccc(C(F)(F)F)c1
-- reply 0.85

-- ask Can you check Nc1ccc(S(=O)(=O)Nc2ccc(Cl)nn2)cc1 next?
-- reply 1.19

###

- ASSAYED SYSTEM: Mitogen-activated protein kinase 7 (Homo sapiens)
- ASSAY SUMMARY: Gal4-ERK5 driven luciferase induction – cell-based, HTS, primary screen (AID 1508626);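 also: luciferase driven by Gal4-ERK5 fusion binding five Gal4 sites before minimal TATA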
- RECORDED CONDITIONS: HeLa Gal4-ERK5 transactivation, 18 h, at 5 µM, stronger effect = higher value
The source made the active and inactive calls.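 The calls were made as follows: active = luciferase signal above three times the same-plate solvent-only control wells; inactive = the rest.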
VALUE TYPE: luciferase signal

-- ask Can you share its luciferase signal? I mean this compound: CC(=O)O[C@]1(C(C)=O)CC[C@H]2[C@@H]3C=C(Cl)C4=CC(=O)CC[C@]4(C)[C@H]3CC[C@@]21C
-- reply 76 AU (inactive)

-- ask Further, for CCCCC(=O)O[C@]1(C(=O)CO)[C@@H](C)C[C@H]2[C@@H]3CCC4=CC(=O)C=C[C@]4(C)[C@@]3(F)[C@@H](O)C[C@@]21C ?
-- reply 80 AU (inactive)

-- ask Again, but for Nc1cc(-c2ccncc2)c[nH]c1=O
-- reply 104 AU (inactive)

###

- ASSAY SUMMARY: inhibition of endothelial tube formation, primary screen, imaging, VEGF stimulated, CD31 staining, tube area, NPC library (AID 1117340)
- RECORDED CONDITIONS: VEGF-stimulated ADSC/ECFC co-culture, at 10 µM
Activity calls are given as the source filed them.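 The calls were made as follows: active = compound that reduces growth-factor-driven endothelial tube area in a mixed cell culture, no cutoff stated; inactive = the rest.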
Hi there, use one of these labels in your reply, thanks! 1 (yes) (active), 0 (no) (inactive)

-- ask Outcome logged for C[C@@H]1CN(CCCn2c3ccccc3c3ccccc32)C[C@H](C)N1 in this assay:
-- reply 1 (yes)

-- ask Try this compound next: CC/C(=C(/CC)c1ccc(O)cc1)c1ccc(O)cc1
-- reply 0 (no)

-- ask Now consider CC(C)c1ccc2oc3nc(N)c(C(=O)O)cc3c(=O)c2c1 .
-- reply 0 (no)

-- ask CC(=O)Nc1ccc(CC(=O)O)cc1 ?
-- reply 0 (no)

-- ask Now try O=C1N(c2ccccc2)c2ccccc2C1(Cc1ccncc1)Cc1ccncc1 .
-- reply 0 (no)

-- ask Please answer likewise for O=c1c(-c2ccc(O)cc2)coc2cc(O)cc(O)c12
-- reply 1 (yes)

-- ask Quick one: C=CC(N)CCC(=O)O (stereo unspecified)
-- reply 0 (no)

-- ask Let us now turn to C[n+]1cc2c3c(ccc2c2ccc4cc5c(cc4c21)OCO5)OCO3
-- reply 1 (yes)

-- ask Same for CCOC(=O)C1=C(C)NC(C)=C(C(=O)OC)C1c1cccc(Cl)c1Cl (stereo unspecified)
-- reply 1 (yes)

-- ask Also Cc1ccsc1/C=C/C1=NCCCN1C , if possible.
-- reply 0 (no)

-- ask Please give the result for CC(C)[C@H](N)C(=O)OCCOCn1cnc2c(=O)[nH]c(N)nc21 too.
-- reply 0 (no)

Values from PubChem BioAssay
